Experiment: Half life in Sprague-Dawley rat at 5 mg/kg, iv by LC-MS/MS analysis
Format: ADME, organism-based
Settings: in vivo
observation.type: half-life (h)

> print(dat)
                            smiles.notation  observation.type  quantity.unit  measured.value
1  N#Cc1cccnc1N1CCN(C(=O)c2cc(Cc3n[nH]c(=O)c4ccccc34)cc(F)c2F)CC1         half-life              h             5.3

###

Target: Poly [ADP-ribose] polymerase 1 (Homo sapiens, UniProt P09874)
Sequence (P09874 whole entry): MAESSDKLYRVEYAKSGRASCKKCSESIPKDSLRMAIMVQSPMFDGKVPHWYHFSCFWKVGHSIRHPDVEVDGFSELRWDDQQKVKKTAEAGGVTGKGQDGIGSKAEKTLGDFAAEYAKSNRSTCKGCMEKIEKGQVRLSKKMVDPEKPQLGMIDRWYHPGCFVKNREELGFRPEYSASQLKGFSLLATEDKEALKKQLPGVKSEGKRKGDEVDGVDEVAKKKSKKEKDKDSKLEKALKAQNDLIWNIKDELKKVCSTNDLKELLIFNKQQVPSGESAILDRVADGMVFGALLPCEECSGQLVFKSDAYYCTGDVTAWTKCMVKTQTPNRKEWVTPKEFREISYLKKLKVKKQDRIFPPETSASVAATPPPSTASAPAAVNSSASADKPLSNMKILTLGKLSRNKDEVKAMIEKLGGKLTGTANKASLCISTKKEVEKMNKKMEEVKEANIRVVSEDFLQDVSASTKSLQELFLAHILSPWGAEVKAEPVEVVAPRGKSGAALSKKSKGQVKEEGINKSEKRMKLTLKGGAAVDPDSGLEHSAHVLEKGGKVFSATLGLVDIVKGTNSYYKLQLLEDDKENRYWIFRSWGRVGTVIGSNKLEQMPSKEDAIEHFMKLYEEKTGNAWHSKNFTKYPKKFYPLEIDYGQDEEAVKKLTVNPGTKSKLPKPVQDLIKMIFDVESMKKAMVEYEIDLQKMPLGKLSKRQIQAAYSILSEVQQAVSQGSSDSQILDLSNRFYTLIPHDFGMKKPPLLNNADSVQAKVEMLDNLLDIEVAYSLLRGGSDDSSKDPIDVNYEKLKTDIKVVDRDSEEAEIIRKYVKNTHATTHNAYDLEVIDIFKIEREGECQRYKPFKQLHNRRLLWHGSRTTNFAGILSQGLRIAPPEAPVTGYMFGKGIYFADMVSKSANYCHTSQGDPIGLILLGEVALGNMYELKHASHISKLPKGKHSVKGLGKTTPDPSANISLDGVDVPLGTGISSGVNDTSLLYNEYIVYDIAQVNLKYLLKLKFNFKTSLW
pIC50: −log10 of the molar value.
Everything with pIC50 lower than 9 is Condition not met; everything else, including exactly 9, is Condition met.

> print(dat)
                            smiles.notation                             target.system         class.name
1  COc1ccc(N2CCN(C(=O)c3cc(Cc4n[nH]c(=O)c5ccccc45)cc(F)c3F)CC2)cc1  Poly [ADP-ribose] polymerase 1 (Homo sapiens, UniProt P09874)  Condition not met
2  O=C(c1cc(Cc2n[nH]c(=O)c3ccccc23)cc(F)c1F)N1CCN(c2ccccc2)CC1  Poly [ADP-ribose] polymerase 1 (Homo sapiens, UniProt P09874)      Condition met
3  O=C(c1cc(Cc2n[nH]c(=O)c3ccccc23)cc(F)c1F)N1CCN(c2ccc(Cl)cc2)CC1  Poly [ADP-ribose] polymerase 1 (Homo sapiens, UniProt P09874)  Condition not met
4  Cc1ccc(C(=O)N2CCN(C(=O)c3cc(Cc4n[nH]c(=O)c5ccccc45)cc(F)c3F)CC2)cc1  Poly [ADP-ribose] polymerase 1 (Homo sapiens, UniProt P09874)  Condition not met
5  CC(=O)N1CCN(C(=O)c2cc(Cc3n[nH]c(=O)c4ccccc34)cc(F)c2F)CC1  Poly [ADP-ribose] polymerase 1 (Homo sapiens, UniProt P09874)  Condition not met
6  O=C(c1cc(Cc2n[nH]c(=O)c3ccccc23)cc(F)c1F)N1CCN(c2nsc3ccccc23)CC1  Poly [ADP-ribose] polymerase 1 (Homo sapiens, UniProt P09874)  Condition not met
7  Cc1ccc(N2CCN(C(=O)c3cc(Cc4n[nH]c(=O)c5ccccc45)cc(F)c3F)CC2)cc1  Poly [ADP-ribose] polymerase 1 (Homo sapiens, UniProt P09874)      Condition met
8  O=C(c1cc(Cc2n[nH]c(=O)c3ccccc23)cc(F)c1F)N1CCN(c2nccs2)CC1  Poly [ADP-ribose] polymerase 1 (Homo sapiens, UniProt P09874)      Condition met

###

pIC50: −log10 of the molar value.
What follows is a collection of pIC50 values obtained with Poly [ADP-ribose] polymerase 1 (Homo sapiens, UniProt P09874).
observation.type: pIC50

> print(dat)
                            smiles.notation  observation.type  measured.value
1  CCN1CCN(C(=O)c2cc(Cc3n[nH]c(=O)c4ccccc34)cc(F)c2F)CC1             pIC50            8.85
2  N#Cc1cccnc1N1CCN(C(=O)c2cc(Cc3n[nH]c(=O)c4ccccc34)cc(F)c2F)CC1             pIC50            8.89
3  O=C(c1cc(Cc2n[nH]c(=O)c3ccccc23)cc(F)c1F)N1CCN(c2ccccc2O)CC1             pIC50            9.05
4  O=C(c1cc(Cc2n[nH]c(=O)c3ccccc23)cc(F)c1F)N1CCN(c2ccc(O)cc2)CC1             pIC50            9.22
